study-target: T1, mouse NEMO (mNEMO, a.a. 250–339, corresponding to hNEMO 257–346) (mouse, UniProt O88522 250-339)
T1 construct: NEMO (IKKγ), mouse, residues 250-339; Cloned into pET-28a downstream of the 6xHis tag; source: E. coli BL21 (DE3), purified (Talon beads, on-column thrombin cleavage, size-exclusion chromatography); not shown: His6, N-terminal, cleaved
T1 sequence (O88522 250-339): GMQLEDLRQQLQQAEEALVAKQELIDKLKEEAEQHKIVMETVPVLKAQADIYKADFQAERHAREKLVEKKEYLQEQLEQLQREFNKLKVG
method-summary: SPR; Biacore S200; GST-HOIP NZF1 held on anti-GST antibodies amine-coupled to a CM5 chip, GST as control; analytes in 10 mM HEPES pH 7.4, 150 mM NaCl, 0.005% P20; mono-ubiquitin 288.0-1.1 µM, mNEMO 100.0-0.4 µM; equilibrium KD; duplicate
experimental-context: both partners purified
measured-property: Kd

# input Note down Kd recorded for ARGRWACQSCTFENEAAAVLCSICERPRLA (domain or fragment, human, UniProt Q96EP0 350-379, looked up, HOIP, human, NZF1 domain, residues 350-379; Held on the SPR chip by anti-GST antibodies; how the uncleaved fusion was purified is not described; source: E. coli BL21 (DE3), expressed as GST-fusion protein; not shown: GST, N-terminal, kept) [GST-HOIP NZF1(a.a. 350–379)]
# output 86.7 µM

Each recorded value in this set is attributed to paper PMC9294000.
